- Assayed System: human PRMT1 (Homo sapiens, UniProt Q99873)
- Construct: GST-tagged PRMT1; made in house; host or cells: High Five insect cells (baculovirus)
- Sequence (Q99873 with tags, fused parts or gaps): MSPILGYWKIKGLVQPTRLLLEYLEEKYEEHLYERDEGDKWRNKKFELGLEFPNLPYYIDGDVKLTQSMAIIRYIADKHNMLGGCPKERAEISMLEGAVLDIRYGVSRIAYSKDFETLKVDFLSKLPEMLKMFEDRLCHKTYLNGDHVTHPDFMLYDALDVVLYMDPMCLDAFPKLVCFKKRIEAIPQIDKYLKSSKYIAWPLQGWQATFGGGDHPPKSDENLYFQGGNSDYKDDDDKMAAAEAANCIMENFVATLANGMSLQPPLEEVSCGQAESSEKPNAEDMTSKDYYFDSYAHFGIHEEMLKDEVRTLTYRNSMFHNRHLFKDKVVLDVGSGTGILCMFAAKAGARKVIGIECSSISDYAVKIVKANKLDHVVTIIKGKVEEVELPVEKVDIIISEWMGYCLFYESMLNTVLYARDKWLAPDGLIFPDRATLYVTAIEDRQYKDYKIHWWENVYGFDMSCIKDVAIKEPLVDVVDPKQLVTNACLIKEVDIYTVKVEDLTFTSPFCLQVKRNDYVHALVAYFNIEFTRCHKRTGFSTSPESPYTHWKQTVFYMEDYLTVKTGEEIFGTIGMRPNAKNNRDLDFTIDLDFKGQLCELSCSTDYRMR
- Assay Explanation: PRMT1 Biochemical Assay (3H-SAM Flashplate, peptide substrate)
- Applied Conditions: single experiment or average of multiple experiments
pIC50: −log10 of the molar value.
Attribute Measured: pIC50

Use the examples below as a reference point.
Recorded pIC50 of CNCCN(C)Cc1n[nH]cc1-c1ccc(Oc2ccccc2)c(C(=O)NC)c1 [Compound 240] , please.
7.42

Reported pIC50 for CN(CCN)Cc1n[nH]cc1-c1ccc(C#N)cc1 [Compound 100] : what is it?
7.92

Which measured pIC50 value corresponds to CC(C)Oc1ccc(-c2c[nH]nc2CN(C)CCN)cc1F [Compound 144] ?
8.24

# get_value(readout='pIC50', item= CNCCN(C)Cc1n[nH]cc1-c1ccc(OC(C)C)c(Cl)c1 [Compound 212] )
8.19

Requested field: pIC50. Item: CNCCN(C)Cc1c[nH]nc1-c1ccc(OC2CCC2)cc1 [Compound 304]
8.18

(1) CNCCN(C)Cc1cn(Cc2ccccc2)nc1-c1ccc(OC(C)C)cc1 [Compound 217]
(2) CNCCN(C)Cc1c[nH]nc1-c1ccc(OCC(C)C)cc1 [Compound 306]
Could you please tell me which of these two has the higher pIC50: 1 or 2 ? Please respond with the label that marks your chosen entry.
2

(I) CC(C)CN1C(=O)COc2ccc(-c3n[nH]cc3CN(C)CCN)cc21 [Compound 191]
(II) CNCCN(C)Cc1c[nH]nc1-c1cccc2ccccc12 [Compound 57]
# min-compare on pIC50 between I and II // return label of chosen record
I

---

- Assayed System: human PRMT8 (Homo sapiens, UniProt Q9NR22)
- Sequence (Q9NR22 whole entry): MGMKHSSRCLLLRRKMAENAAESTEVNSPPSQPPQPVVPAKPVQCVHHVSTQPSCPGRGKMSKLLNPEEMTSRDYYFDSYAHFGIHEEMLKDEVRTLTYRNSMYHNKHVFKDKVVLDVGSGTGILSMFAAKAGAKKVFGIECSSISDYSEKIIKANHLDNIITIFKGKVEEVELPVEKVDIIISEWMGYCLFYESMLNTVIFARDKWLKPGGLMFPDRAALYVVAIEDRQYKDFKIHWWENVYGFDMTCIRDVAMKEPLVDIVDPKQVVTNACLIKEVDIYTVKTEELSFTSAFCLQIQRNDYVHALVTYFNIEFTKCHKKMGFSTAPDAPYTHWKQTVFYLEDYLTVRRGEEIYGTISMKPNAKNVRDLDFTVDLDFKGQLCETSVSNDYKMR
- Assay Explanation: PRMT8 Biochemical Assay (3H-SAM Flashplate, peptide substrate)
- Applied Conditions: single experiment or average of multiple experiments
pIC50: −log10 of the molar value.
Attribute Measured: pIC50

Use these answered entries as a reference point.
I am curious: what pIC50 value has been reported for COc1cccc(-c2n[nH]cc2CN(C)CCN)c1 ?
6.19

Request the reported pIC50 associated with CNCCN(C)Cc1c[nH]nc1-c1ccc(OC2CC2)cc1
7.55

(1) CN(CCN)Cc1c[nH]nc1-c1ccc(C(F)(F)F)cc1Cl
(2) CNCCN(C)Cc1c[nH]nc1-c1ccc(O)cc1
Consider entries 1 and 2 . Which has the numerically lower pIC50? Please indicate the selected item by its label.
1
(1: 5.88, 2: 6.15)

---

- Tested on: mono-methyl arginine in RKO cells
- Assay Explanation: RKO Methylation Assay, In Cell Western (ICW) for mono-methyl arginine and DNA content
- Type: cell-based
- Applied Conditions: Homo sapiens, RKO, 72 h, RKO cells, 72 hours, mono-methyl arginine, percent activation; single experiment or average of multiple experiments; read-out: EC30 (In Cell Western data, Numerical)
In this section, each of the molecules is paired with its reported EC30.
Unit nM implied. Number only.

See these solved cases before continuing.
Requested field: EC30. Item: CNCCN(C)Cc1n[nH]cc1-c1ccc(Oc2cccc(C#N)c2)cc1 [Compound 267]
694

Value lookup for EC30; key = CNCCN(C)Cc1c[nH]nc1-c1ccc(OCC2CCOCC2)cc1 [Compound 284]
856

Suppose we examine the molecule COCCCOc1ccc(-c2n[nH]cc2CN(C)CCN)cc1 [Compound 179] ; what EC30 value has been reported?
30

Give its EC30 value. Item: CNCCN(C)Cc1cn(Cc2ccccn2)nc1-c1ccc(OC(C)C)cc1 [Compound 247]
8260

Fill in the blank: the reported EC30 of CN(CCN)Cc1c[nH]nc1-c1ccc(N2CCN(C(=O)Cc3ccccc3)CC2)cc1 [Compound 190] is ____.
8390

What EC30 value was documented for this molecule, CN(CCN)Cc1c[nH]nc1-c1cccc(N(C)C)c1 [Compound 149] ?
4320

Further cases:
Dear colleague, I am looking for the recorded EC30 of the following molecule: CNCCN(C)Cc1cn(CC(N)=O)nc1-c1ccc(OC(C)C)cc1 [Compound 251]
18700

Look up EC30: CN(CCN)Cc1c[nH]nc1-c1ccc(C(F)(F)F)c(F)c1 [Compound 141]
583

Sample CNCCN(C)Cc1c[nH]nc1-c1ccc(Oc2ccccc2)c(C(=O)NC)c1 [Compound 232] — what was its EC30?
7140

---

- Assayed System: human PRMT6 (Homo sapiens)
- Construct: Flag-PRMT6-His; made in house; host or cells: HEK 293F cells (BacMam baculovirus)
- Sequence (Q96LA8 with tags, fused parts or gaps): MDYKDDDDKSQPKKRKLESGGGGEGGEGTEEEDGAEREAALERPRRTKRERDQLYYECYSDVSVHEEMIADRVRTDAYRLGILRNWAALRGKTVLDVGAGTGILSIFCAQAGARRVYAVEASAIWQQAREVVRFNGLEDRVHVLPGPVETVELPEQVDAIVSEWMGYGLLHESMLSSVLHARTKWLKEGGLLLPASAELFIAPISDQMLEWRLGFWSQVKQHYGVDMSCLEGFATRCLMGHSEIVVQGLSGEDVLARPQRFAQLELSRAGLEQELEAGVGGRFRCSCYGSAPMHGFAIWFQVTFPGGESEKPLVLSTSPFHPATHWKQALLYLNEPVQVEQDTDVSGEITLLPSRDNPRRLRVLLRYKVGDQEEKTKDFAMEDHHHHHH
- Assay Explanation: PRMT6 Biochemical Assay (3H-SAM Flashplate, peptide substrate)
- Applied Conditions: Biochemical IC50 PRMT6, single experiment or average of multiple experiments
Attribute Measured: IC50 (nM)

Before answering, review these 5 worked examples.
For the molecule shown here, CNCCN(C)Cc1c[nH]nc1-c1ccc(OCC2CCOCC2)cc1 [Compound 284] , give the reported IC50.
40.5

Which IC50 value belongs to CN(CCN)Cc1c[nH]nc1-c1ccc(Cl)cc1Cl [Compound 86] ?
9.16

Item under review: CNCCN(C)Cc1cnn(C(C)C)c1-c1ccc(F)cc1 [Compound 16] . Reported IC50?
57.9

What measured IC50 goes with CC(C)Oc1cccc(-c2n[nH]cc2CN(C)CCN)c1 [Compound 187] ?
77.6

Name the reported IC50 value associated with the molecule CCn1cc(CN(C)CCNC)c(-c2ccc(F)cc2)n1 [Compound 8]
287

(P) Cc1ccc(-c2n[nH]cc2CN(C)CCN)cc1Cl [Compound 126]
(Q) CC(C)CN(C)C(=O)c1ccc(-c2n[nH]cc2CN(C)CCN)cc1 [Compound 164]
(R) CN(CCN)Cc1c[nH]nc1-c1cccc(F)c1 [Compound 71]
(S) CNCCN(C)Cc1c[nH]nc1-c1cc(OC(C)C)cc(C(C)C)c1 [Compound 260]
(T) CN(CCN)Cc1c[nH]nc1-c1cccc(C#N)c1 [Compound 70]
Rank items: key IC50, increasing. Use the labels to give the requested order.
P, R, T, Q, S

(P) CCn1ncc(CN(C)CCNC)c1-c1ccc(F)cc1 [Compound 7]
(Q) CN(CCN)Cc1c[nH]nc1-c1ccc(C(F)(F)F)c(F)c1 [Compound 141]
When their IC50 values are compared, which is larger, P or Q ? Your answer should be the label attached to the chosen record.
P
(P: 38.3 nM, Q: 7.79 nM)

(A) CNCCN(C)Cc1c[nH]nc1-c1ccc(OCC(C)C)cc1 [Compound 306]
(B) CC(C)Cc1cc(-c2n[nH]cc2CN(C)CCN)ccc1F [Compound 280]
Identify the entry with the larger IC50. Options: A and B Answer by quoting the chosen item's label.
A

(a) CNCCN(C)Cc1c[nH]nc1-c1ccc(OCCCO)cc1 [Compound 236]
(b) CNCCN(C)Cc1n[nH]cc1-c1ccc(Oc2cccc(C#N)c2)cc1 [Compound 267]
(c) CN(CCN)Cc1c[nH]nc1-c1ccccc1 [Compound 73]
(d) CN(CCN)Cc1c[nH]nc1-c1ccccc1F [Compound 72]
hey, can you rank those molecules up there by IC50? biggest number first please Answer by naming the labels in the order asked.
d, c, a, b

---

Entries with their measured IC50, system human PRMT3 (Homo sapiens, UniProt O60678):
Attribute Measured: IC50 (µM)

Known results for molecules:
Suppose we examine the molecule CNCCN(C)Cc1cn[nH]c1-c1cc(F)cc(F)c1 [Compound 18] ; what IC50 value has been reported?
7.43

// lookup IC50 for CC(O)c1ccc(-c2n[nH]cc2CN(C)CCN)cc1 (stereo not shown) [Compound 115]
8.32

Need IC50 of CC(C)Oc1ccc(-c2n[nH]cc2CN(C)CCN)cc1Cl [Compound 168] , thanks.
3.91

(P) Cc1cccc(-c2n[nH]cc2CN(C)CCN)c1 [Compound 131]
(Q) COc1ccc(-c2n[nH]cc2CN(C)CCN)c(C)c1 [Compound 155]
Response body: label of entry with the larger IC50; valid values P , Q . Bench note: the answer is the label of the chosen record.
Q
(Q: 8.56 µM, P: 3.57 µM)

---

- Assayed System: Human CARM1 (PRMT4) (Homo sapiens)
- Construct: Flag-CARM1-His; made in house; host or cells: HEK 293F cells (BacMam baculovirus)
- Sequence (Q86X55 1-585 isoform Q86X55-1): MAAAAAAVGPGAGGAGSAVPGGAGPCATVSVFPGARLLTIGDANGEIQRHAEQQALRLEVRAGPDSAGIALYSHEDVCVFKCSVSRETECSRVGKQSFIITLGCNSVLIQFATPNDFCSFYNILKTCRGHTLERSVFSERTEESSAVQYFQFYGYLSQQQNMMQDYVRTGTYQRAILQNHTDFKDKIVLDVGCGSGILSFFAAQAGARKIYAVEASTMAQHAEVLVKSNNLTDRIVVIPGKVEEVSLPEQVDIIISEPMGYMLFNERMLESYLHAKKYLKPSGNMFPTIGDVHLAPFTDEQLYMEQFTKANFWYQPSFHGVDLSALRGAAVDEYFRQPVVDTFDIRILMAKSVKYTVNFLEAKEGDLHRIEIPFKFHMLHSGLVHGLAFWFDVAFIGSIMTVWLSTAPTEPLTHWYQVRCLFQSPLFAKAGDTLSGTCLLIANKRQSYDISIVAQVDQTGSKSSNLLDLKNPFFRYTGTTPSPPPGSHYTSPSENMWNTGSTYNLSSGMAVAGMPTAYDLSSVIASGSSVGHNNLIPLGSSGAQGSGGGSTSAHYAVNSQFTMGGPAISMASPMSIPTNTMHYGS
- Assay Explanation: CARM1 Biochemical Assay (3H-SAM Flashplate, peptide substrate)
- Applied Conditions: single experiment or average of multiple experiments
Attribute Measured: IC50 (nM)

Which IC50 value belongs to CN(CCN)Cc1n[nH]cc1-c1ccc(OC(F)F)cc1 [Compound 138] ?
2700

Quick check: IC50 of CN(CCN)Cc1c[nH]nc1-c1ccc(C2CCOCC2)cc1 [Compound 98] ?
439

What does the record list as IC50 for CNCCN(C)Cc1cnn(C(C)C)c1-c1ccc(F)cc1 [Compound 16] ?
6740

// IC50 lookup, key: CNCCN(C)Cc1cnn(C)c1-c1ccc(F)cc1 [Compound 10]
1190

Which IC50 is reported for this molecule? CNCCN(C)Cc1c[nH]nc1-c1cccc2ccccc12 [Compound 57]
1310

(P) CNCCN(C)Cc1c[nH]nc1-c1cccc(C#N)c1 [Compound 22]
(Q) CN(CCN)Cc1c[nH]nc1-c1ccc(C(F)(F)F)cc1 [Compound 92]
Hi team, can someone confirm which has the larger IC50: P or Q ? Thanks. Which one? Tell me its label.
P
(P: 1370 nM, Q: 690 nM)

The reported measurements were obtained from patent US9776972B2.
